# MEASUREMENT TARGET: UniProt:D0CFC3
# Sequence (D0CFC3 1-297): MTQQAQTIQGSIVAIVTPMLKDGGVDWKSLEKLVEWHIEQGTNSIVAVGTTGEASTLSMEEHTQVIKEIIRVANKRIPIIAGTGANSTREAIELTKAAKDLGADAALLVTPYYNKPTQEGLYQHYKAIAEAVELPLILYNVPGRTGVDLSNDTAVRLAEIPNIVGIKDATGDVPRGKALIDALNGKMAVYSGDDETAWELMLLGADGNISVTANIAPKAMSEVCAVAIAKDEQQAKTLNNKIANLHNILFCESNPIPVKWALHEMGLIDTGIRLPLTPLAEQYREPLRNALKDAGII
ENDPOINT: IC50 (µM)

[[record]]
compound = "CS(=O)(=O)NNc1ccccc1 [N’-phenylmethanesulfonohydrazide]"
readout_number = 35


Origin of measurements: paper doi:10.1101/2022.02.10.480023v1
